system: COLO 205; assay: NCI tumour cell line growth inhibition, 48 h
The source made the active and inactive calls. No stated cut-off is given here; in the data, active = GI50 up to about 1.1 µM and inactive = higher.
# GI50 per entry

Illustrative cases are given below, each with its answer.
CCOC(=O)c1cn(C)nc1N/C(C)=C\C(=O)c1ccccc1; > 100 µM (inactive)
O=c1cnc2cc3ccccc3cc2[nH]1; > 100 µM (inactive)

Now for another entry.
Let me check: "C[C@@H](CN1CC(=O)NC(=O)C1)N1CC(=O)NC(=O)C1" , system COLO 205, measured GI50 is 12.5 µM (inactive)

---

tested on: MDA-MB-231; assay: NCI tumour cell line growth inhibition, 48 h
Structures can show the parent of a compound that is named as a salt. Active and inactive are the calls of the source. No stated cut-off is given here; in the data, active = GI50 up to about 1.1 µM and inactive = higher. Residues, ends and D or L forms follow the SMILES beside them. *: point of attachment. Tfa = O=C(C(F)(F)F)*
experimental_readout: GI50

Illustrative cases are given below, each with its answer.
CC(C)(C)[Si](C)(C)OCC1OC(n2cnc3c(=O)[nH]c(N)nc32)C(O[Si](C)(C)C(C)(C)C)C1O[Si](C)(C)C(C)(C)C (centres undefined); 3.71 µM (inactive)
O=C1C=CC2(C=C1)O[C@H](CCc1ccccc1)[C@@H](CCc1ccccc1)O2; > 100 µM (inactive)
O=C(O)CC(NC(=O)C(F)(F)F)C(=O)NC(Cc1ccc(O)cc1)C(=O)O (stereo not drawn) (Tfa-Asp-Tyr-OH; configuration not given here); > 50 µM (inactive)

Now for another entry.
# GI50 of "CO[C@H]1C[C@H](n2cc(C)c(=O)[nH]c2=O)O[C@@H]1CO" = > 100 µM (inactive)
